Consider the following binders and their measured IC50 (read off the curve) readings.
Molecular target: T1, Biotinylated CD96 antigen (human, UniProt P40200-2 22-503, limits assumed, biotinylated)
T1 sequence (looked up): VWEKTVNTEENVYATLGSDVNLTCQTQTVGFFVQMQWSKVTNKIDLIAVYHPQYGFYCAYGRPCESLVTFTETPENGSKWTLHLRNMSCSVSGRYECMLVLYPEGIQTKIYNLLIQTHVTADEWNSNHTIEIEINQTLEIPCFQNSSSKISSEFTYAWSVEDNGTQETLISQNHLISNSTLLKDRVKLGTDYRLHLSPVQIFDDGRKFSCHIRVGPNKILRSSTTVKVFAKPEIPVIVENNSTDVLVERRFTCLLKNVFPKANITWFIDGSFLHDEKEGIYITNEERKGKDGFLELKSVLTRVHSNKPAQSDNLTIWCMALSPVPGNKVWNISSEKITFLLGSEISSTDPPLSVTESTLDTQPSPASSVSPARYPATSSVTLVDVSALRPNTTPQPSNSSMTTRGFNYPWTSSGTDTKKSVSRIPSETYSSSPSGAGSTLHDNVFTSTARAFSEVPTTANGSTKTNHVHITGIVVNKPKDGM
Assay: competition ELISA: antibody B pre-incubated with biotinylated CD96 antigen, added to a plate coated with antibody A, HRP-streptavidin, OD450; competitor: coated h1719-014 (named by the legend paragraph 84)

binder="h1719-010 (antibody, V domains shown, Only variable regions are tied to this name) VH: EVTLKESGPVLVKPTETLTLTCTVSGFSLSSYGVSWVRQPPGKGLEWLGVIWGDGNTNYHSVLISRLTISKDTSKSQVVLTLTNMDPVDTATYYCAKQNYYGSRYGYPIDYWGQGTTVTVSS VL: DIQMTQSPSSVSASVGDRVTITCKATQDVGTAVAWYQQKPGKAPKLLIYWASTRHTGVPSRFSGSGSGTDFTLTISSLQPEDFATYYCQQYGSSVLTFGGGTKVEIK" readout_name="IC50 (read off the curve)" measured_result="~400 pM"

Value of measured IC50 (read off the curve) for the entry ch1720 (antibody, human IgG4 S228P, kappa, V domains shown, also called chimeric antibody corresponding to m1720) VH: EFQLQQSGPELVKPGASVKISCKASAYSLTDYNMNWVKQSNGKSLEWIGVINPSYGISSYNQKFKGKATLTVDQSSSTAYMHLNSLTSEDSAVYYCARQLRLPGYFDVWGTGTTVTVSS VL: DIKMTQSPSSKNASLGERVTITCKASQDINSYLNWFQQKPGKSPKTLIYRASRLVDGVPSRFSGSGSGQDYSLTISSLEYEDMGIYYCLKYDEFPYTFGGGTKLEIKR : ~1000 pM

Value of measured IC50 (read off the curve) for the entry h1718-012 (antibody, V domains shown, Only variable regions are tied to this name) VH: EVQLVQSGAEVKKPGASVKVSCKASGYTITDYNMNWVRQAPGQRLEWIGVINPSYGITDYNQNFKDRVTITVDTSASTAYMELSSLRSEDTAVYYCAIQLRLPGYFDVWGQGTTVTVSS VL: DIQMTQSPSSLSASVGDRVTITCKASQDINQYLNWFQQKPGKAPKTLIYRANRLVDGVPSRFSGSGSGQDYTLTISSLQPEDFATYYCLKYDEFPYTFGGGTKVEIK : ~400 pM

Value of measured IC50 (read off the curve) for the entry h1721-003 (antibody, V domains shown, Only variable regions are tied to this name; also called M721-003) VH: EVTLKESGPVLVKPTETLTLTCTVSGFSLSSYGVNWIRQPPGKALEWLGVIWGDGSTNYHSALISRLTISKDTSKSQVVLTLTNMDPVDTATYYCAKNYFYGSRYGYAMDSWGQGTTVTVSS VL: DIQMTQSPSSLSASVGDRVTITCRASENIYSSLAWYQQKPGKAPKLLIYNAKTLIEGVPSRFSGSGSGTDFTLTISSLQPEDFATYYCQHHYGTPYTFGGGTKVEIK : ~400 pM
